B1: F1*; the commonest letter at each place (parent)
chain: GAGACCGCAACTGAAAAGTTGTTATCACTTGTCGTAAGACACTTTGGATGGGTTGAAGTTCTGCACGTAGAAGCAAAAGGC

Variants of: B1
procedure-details: fraction ligated after 30 min (ligated reads / total reads); higher = more ligase activity
measurement-conditions: with F1*sub RNA substrate (template-directed ligation), 42 °C
attribute-measured: fraction ligated
Answers are plain numbers.

Observe how each entry below is paired with its result.
mutant-name: T30C T45G
fraction ligated: 0.174
--
mutant-name: T25G T32C
fraction ligated: 0.364
--
mutant-name: C40A G46T
fraction ligated: 0.792
--
mutant-name: T45G T49C
fraction ligated: 0.0508

Batch request: fraction ligated per item, same order as input.
1. T32A T49G
2. T29C T30C
3. T30G T32G C33G G38C A39C A41C
4. G50A G55T

## Output
[0.618, 0.782, 0.862, 0.0307]

For every item below, please supply its fraction ligated.
1. T49A G55T
2. G34T G46A
3. C40G A41G
4. T32C G47T
5. C28T T30C
6. T25G C33G
7. T25A T49G
8. T30C C33G

## Output
1. 0.24
2. 0.823
3. 0.807
4. 0.103
5. 0.805
6. 0.535
7. 0.772
8. 0.837

For the 3 variants below, give their fraction ligated values.
1. T35A A39T
2. T45G G46C
3. T44G G55T

## Output
0.838
0.0668
0.795

Sourced from the supplement of paper PMC6755084
